Measured values drawn from patent US20100311648A1 for this set.

# measurement-target: T1, melanocortin-1 receptor (mouse (B-16 melanoma cells); in some …, UniProt Q01727 1-315)
# T1 construct: whole, on cells; membrane homogenates; also called MC1-R; mouse B16 MC1-R
# T1 sequence (Q01727 whole entry): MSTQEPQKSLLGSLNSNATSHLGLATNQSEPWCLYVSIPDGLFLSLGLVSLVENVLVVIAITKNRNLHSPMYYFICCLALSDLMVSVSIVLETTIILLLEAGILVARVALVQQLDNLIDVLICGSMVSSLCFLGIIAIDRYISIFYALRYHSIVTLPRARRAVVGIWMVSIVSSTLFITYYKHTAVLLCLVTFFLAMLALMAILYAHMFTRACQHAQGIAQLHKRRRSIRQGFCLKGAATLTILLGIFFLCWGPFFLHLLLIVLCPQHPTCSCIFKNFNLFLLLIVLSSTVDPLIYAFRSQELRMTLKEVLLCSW
# protocol-notes: [I125]-NDP-α-MSH competition, MC1-R membranes
# Description: A competitive inhibition binding assay was performed for exemplified peptides according to the invention using membrane homogenates prepared from HEK-293 cells that express recombinant hMC4-R, hMC3-R, or hMC5-R, and from B-16 mouse melanoma cells (containing endogenous MC1-R). […] Filters were dried and counted in a gamma counter for bound radioactivity. […] Ki values for test peptides of the present invention were determined using Graph-Pad Prism® curve-fitting software.
Positions of bridges follow the written chain, without caps; N, C: chain ends. Non-standard residues stand in square brackets, D forms with d. dPhe(4-CN) = N#Cc1ccc(C[C@@H](N)C(=O)O)cc1; dPhe(2-Me) = Cc1ccccc1C[C@@H](N)C(=O)O; Orn = NCCC[C@H](N)C(=O)O
measured-endpoint: pKi
Lab note — pKi values are minus log10 of concentrations in M.

binder	pKi
Ac-RED[dPhe(4-CN)]RW[Orn]-NH2 (lactam 2-7; SMILES CC(=O)N[C@@H](CCCNC(=N)N)C(=O)N[C@H]1CCC(=O)NCCC[C@@H](C(N)=O)NC(=O)[C@H](Cc2c[nH]c3ccccc23)NC(=O)[C@H](CCCNC(=N)N)NC(=O)[C@@H](Cc2ccc(C#N)cc2)NC(=O)[C@H](CC(=O)O)NC1=O, also called No. 106) [Ac-Arg-cyclo(Glu-Asp-D-Phe(4-CN)-Arg-Trp-Orn)-NH2]	5.00
Ac-REQ[dPhe(2-Me)]RW[Orn]-NH2 (lactam 2-7, also called No. 110) [Ac-Arg-cyclo(Glu-Gln-D-Phe(2-Me)-Arg-Trp-Orn)-NH2]	6.98

## Task Please supply the value of reported pKi for the item Ac-RET[dPhe(4-CN)]RW[Orn]-NH2 (lactam 2-7; SMILES CC(=O)N[C@@H](CCCNC(=N)N)C(=O)N[C@H]1CCC(=O)NCCC[C@@H](C(N)=O)NC(=O)[C@H](Cc2c[nH]c3ccccc23)NC(=O)[C@H](CCCNC(=N)N)NC(=O)[C@@H](Cc2ccc(C#N)cc2)NC(=O)[C@H]([C@@H](C)O)NC1=O, also called No. 44) [Ac-Arg-cyclo(Glu-Thr-D-Phe(4-CN)-Arg-Trp-Orn)-NH2]
## Result 5.79
